Kindly state Alpha 2C IA (intrinsic activity) for each of the entries shown.
experimental.target: alpha2C receptor (Homo sapiens, UniProt P18825)
Construct: expressed in transfected cells; host or cells: NIH-3T3 cells
Sequence (P18825 whole entry): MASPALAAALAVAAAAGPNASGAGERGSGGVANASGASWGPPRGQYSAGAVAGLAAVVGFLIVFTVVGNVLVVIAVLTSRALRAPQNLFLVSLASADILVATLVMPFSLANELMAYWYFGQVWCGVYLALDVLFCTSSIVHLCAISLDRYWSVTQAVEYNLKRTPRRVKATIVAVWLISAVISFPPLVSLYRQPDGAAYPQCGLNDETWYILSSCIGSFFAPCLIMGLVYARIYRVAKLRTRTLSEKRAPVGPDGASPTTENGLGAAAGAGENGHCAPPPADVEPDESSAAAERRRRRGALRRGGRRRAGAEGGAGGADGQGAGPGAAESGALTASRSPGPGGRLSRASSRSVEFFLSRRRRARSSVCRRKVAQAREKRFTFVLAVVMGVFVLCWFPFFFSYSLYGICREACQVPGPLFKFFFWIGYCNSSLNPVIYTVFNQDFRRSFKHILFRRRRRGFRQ
protocol.text: Receptor Selection and Amplification Technology (RSAT) assay, alpha2C
Format: cell-based
condition.description: ratio of maximal effect of drug to maximal effect of standard full agonist brimonidine (UK14304)
Procedure: The RSAT assay measures a receptor-mediated loss of contact inhibition that results in selective proliferation of receptor-containing cells in a mixed population of confluent cells. The increase in cell number is assessed with an appropriate transfected marker gene such as […]-galactosidase, the activity of which can be easily measured in a 96-well format. Receptors that activate the G protein, Gq, elicit this response. […]
One number for each entry.

N#C/N=C(/NCCF)NCc1cccc(Br)c1 = 0.32
N#C/N=C(\NCCF)NC1CCc2ccc(F)cc21 (stereo not drawn) = 0.4

IN: Given the entry N#C/N=C(\NCCF)NC1CCc2ccc(Cl)cc21 (stereo not drawn) , what Alpha 2C IA (intrinsic activity) was observed with alpha2C receptor (Homo sapiens, UniProt P18825)?
OUT: 0.36
